Tested on: HL-60
Assay: Cytotoxicity against human HL60 cells by MTT assay
Assay type: functional, cell-based
pIC50: −log10 of the molar value.
measuredProperty: pIC50

stdin: Given the compound C=C(C)[C@@]12OC3(c4ccccc4)O[C@@H]1[C@@H]1[C@H]4O[C@@]4(C)[C@@H](O)[C@]4(O)C(=O)[C@@H](C)C[C@H]4[C@@]1(O3)[C@H](C)[C@@H]2OC(=O)c1ccccc1 (relative stereo) , write its reported pIC50.
stdout: 5.74

stdin: Tell me measured pIC50 for CC(C)=CC(=O)C(O)/C(C)=C/CC[C@](C)(O)C1CCC(C)=CC1=O (stereo partly specified) please.
stdout: < 5.00

stdin: Return value of pIC50 for input C=C(C)[C@@]12OC3(c4ccccc4)O[C@@H]1[C@@H]1[C@H](OC(C)=O)[C@@](C)(O)[C@@H](OC(=O)c4ccccc4)[C@@]4(O)[C@@H](C[C@H](C)[C@@H]4OC(C)=O)[C@@]1(O3)[C@H](C)[C@@H]2OC(C)=O (relative stereo) , no commentary.
stdout: < 5.00

stdin: Kindly indicate its recorded pIC50. Item: C=C(C)[C@@]1(OC(C)=O)[C@H](OC(C)=O)[C@@H]2[C@H](OC(C)=O)[C@@]3(C)O[C@@]4([C@@H]3OC(C)=O)[C@@H](OC(=O)c3ccccc3)[C@@H](C)C[C@H]4[C@@]2(O)[C@H](C)[C@@H]1OC(=O)c1ccccc1
stdout: < 5.00

stdin: Supply measured pIC50 of C=C(C)[C@@]1(OC(C)=O)[C@H](OC(C)=O)[C@@H]2[C@H](OC(C)=O)[C@@]3(C)O[C@@]4([C@@H]3OC(C)=O)[C@@H](OC(=O)c3ccccc3)[C@](C)(OC(C)=O)C[C@H]4[C@@]2(O)[C@H](C)[C@@H]1OC(=O)c1ccccc1 (relative stereo) in your reply.
stdout: < 5.00

stdin: Give recorded pIC50. C=C(C)[C@@]12OC3(C)O[C@@H]1[C@@H]1[C@H](O)[C@@](C)(O)[C@@H](O)[C@@]4(O)[C@@H](C[C@H](C)[C@@H]4OC(C)=O)[C@@]1(O3)[C@H](C)[C@@H]2OC(=O)CCc1ccccc1 (relative stereo)
stdout: < 5.00
